- MEASURED ON: Apolipoprotein L1 (Homo sapiens)
- ASSAY INFO: Inhibition of APOL1 G1 variant in human HEK293-T-REx cells measured by Thallium assay
EXPERIMENTAL ENDPOINT: IC50

Completed entries (count: 4):
[[record]]
structure = "O=C(CCc1c(-c2ccccc2)[nH]c2cc(F)ccc12)N[C@@H]1C(=O)NC[C@H]1O"
experimental_endpoint = "IC50"
obs_value = "< 250 nM"

[[record]]
structure = "Cc1ccc(-c2[nH]c3c(F)cc(F)cc3c2CCC(=O)N[C@@H]2C(=O)NC[C@H]2O)cc1"
experimental_endpoint = "IC50"
obs_value = "< 250 nM"

[[record]]
structure = "COc1cc(F)cc2c(CCC(=O)N[C@H]3CCNC3=O)c(-c3ccc(F)cc3)[nH]c12"
experimental_endpoint = "IC50"
obs_value = "250 nM"

[[record]]
structure = "O=C(CCc1c(-c2ccccc2)[nH]c2cc(F)cc(F)c12)N[C@@H]1C(=O)NC[C@H]1O"
experimental_endpoint = "IC50"
obs_value = "< 250 nM"


Which IC50 reading was recorded for the compound O=C(CCc1c(-c2ccc(F)cc2)[nH]c2c(F)c(F)ccc12)N[C@@H]1C(=O)NC[C@H]1O ?
< 250 nM

###

Listing: IC50 of selected compounds
- System: Trypanosoma brucei brucei
- ASSAY INFO: Antitrypanosomal activity against Trypanosoma brucei brucei assessed as trypanosome lysis using recombinant APOL1 protein G1 variant and measured by Alamar blue based fluorescene assay
- Type: functional, organism-based

Completed entries (count: 4):
[[record]]
compound = "O=C(CCc1c(-c2ccc(F)cc2)[nH]c2c(F)cc(Cl)cc12)N[C@@H]1C(=O)NC[C@H]1O"
measured_on = "Trypanosoma brucei brucei"
obs_value = "< 250 nM"

[[record]]
compound = "Cc1cc(-c2[nH]c3ccccc3c2CCC(=O)N[C@@H]2C(=O)NC[C@H]2O)ccc1F"
measured_on = "Trypanosoma brucei brucei"
obs_value = "< 250 nM"

[[record]]
compound = "N#Cc1cc(F)c2[nH]c(-c3ccc(F)cc3)c(CCC(=O)N[C@H]3CCNC3=O)c2c1"
measured_on = "Trypanosoma brucei brucei"
obs_value = "> 1000 nM"

[[record]]
compound = "O=C(CCc1c(-c2ccc(F)cc2)[nH]c2ccc(F)cc12)N[C@@H]1C(=O)NC[C@H]1O"
measured_on = "Trypanosoma brucei brucei"
obs_value = "< 250 nM"


Which IC50 reading was recorded for the compound Cc1c(F)c(F)cc2c(CCC(=O)N[C@@H]3C(=O)NC[C@H]3O)c(-c3ccccc3)[nH]c12 ?
< 250 nM

Which IC50 reading was recorded for the compound O=C(CCc1c(-c2ccc(F)cc2)[nH]c2c(F)cc(F)cc12)N[C@@H]1C(=O)NC[C@H]1O ?
< 250 nM

Which IC50 reading was recorded for the compound O=C1NC[C@@H](O)[C@@H]1NC(=O)C(F)(F)Cc1c(-c2ccc(F)cc2)[nH]c2c(F)cc(F)cc12 ?
< 250 nM

Which IC50 reading was recorded for the compound O=C(CCc1c(-c2ccc(F)cc2)[nH]c2c(F)cc(Br)cc12)N[C@H]1CCNC1=O ?
< 250 nM

###

- MEASURED ON: Apolipoprotein L1 (Homo sapiens, UniProt O14791)
- ASSAY INFO: Inhibition of APOL1 G1 variant in human HEK293-T-REx cells measured by Thallium assay
pIC50: −log10 of the molar value.
EXPERIMENTAL ENDPOINT: pIC50

[[record]]
molecule = "O=C(CCc1c(-c2ccccc2)[nH]c2c(Cl)cc(F)cc12)N[C@@H]1C(=O)NC[C@H]1O"
obs_value = "> 6.60"

[[record]]
molecule = "O=C(CCc1c(-c2ccc(F)cc2)[nH]c2ccccc12)N[C@H]1C(=O)NC[C@@H]1O"
obs_value = "< 6.00"

[[record]]
molecule = "Cc1c(F)c(F)cc2c(CCC(=O)N[C@@H]3C(=O)NC[C@H]3O)c(-c3ccccc3)[nH]c12"
obs_value = "> 6.60"

[[record]]
molecule = "COc1ccc(-c2[nH]c3ccccc3c2CCC(=O)N[C@@H]2C(=O)NC[C@H]2O)cc1"
obs_value = "> 6.60"

[[record]]
molecule = "O=C(CCc1c(-c2ccccc2)[nH]c2c(Cl)cccc12)N[C@@H]1C(=O)NC[C@H]1O"
obs_value = "> 6.60"

[[record]]
molecule = "O=C(CCc1c(-c2ccc(F)cc2)[nH]c2c(F)cc(F)cc12)NC1CC2(CC2)NC1=O (stereo unspecified)"
obs_value = "< 6.00"

[[record]]
molecule = "O=C(CCc1c(-c2ccccc2)[nH]c2c(C(F)(F)F)cccc12)N[C@@H]1C(=O)NC[C@H]1O"
obs_value = 6.60

[[record]]
molecule = "O=C(CCc1c(-c2ccc(F)cc2)[nH]c2c(Cl)cccc12)N[C@H]1CCNC1=O"
obs_value = "> 6.60"

[[record]]
molecule = "O=C(CCc1c(-c2ccc(F)cc2)[nH]c2c(F)cc(Cl)cc12)N[C@@H]1C(=O)NC[C@H]1O"
obs_value = "> 6.60"

[[record]]
molecule = "O=C(CCc1c(-c2ccccc2)[nH]c2c(C3=CCOC3)cccc12)N[C@@H]1C(=O)NC[C@H]1O"
obs_value = "< 6.00"


Which pIC50 reading was recorded for the molecule O=C(CCc1c(-c2ccc(OC(F)F)cc2)[nH]c2c(F)cc(F)cc12)N[C@H]1CCNC1=O ?
> 6.60

###

- MEASURED ON: Apolipoprotein L1 (Homo sapiens)
- ASSAY INFO: Inhibition of APOL1 G1 variant in human HEK293-T-REx cells measured by Thallium assay
EXPERIMENTAL ENDPOINT: IC50

Completed entries (count: 8):
[[record]]
molecule = "O=C(CCc1c(-c2ccc(Cl)cc2)[nH]c2c(Cl)cccc12)N[C@@H]1C(=O)NC[C@H]1O"
measured_on = "Apolipoprotein L1 (Homo sapiens)"
experimental_endpoint = "IC50"
obs_value = "< 250 nM"

[[record]]
molecule = "CC(CC(=O)N[C@@H]1C(=O)NC[C@H]1O)c1c(-c2ccc(F)cc2)[nH]c2c(F)cc(F)cc12 (stereo partly drawn)"
measured_on = "Apolipoprotein L1 (Homo sapiens)"
experimental_endpoint = "IC50"
obs_value = "> 1000 nM"

[[record]]
molecule = "O=C(CCc1c(-c2ccc(F)cc2)[nH]c2c(F)cc(F)cc12)N[C@H]1CCNC1=O"
measured_on = "Apolipoprotein L1 (Homo sapiens)"
experimental_endpoint = "IC50"
obs_value = "< 250 nM"

[[record]]
molecule = "O=C1C[C@@H](NC(=O)CCc2c(-c3ccc(F)cc3)[nH]c3c(F)cc(F)cc23)C(=O)N1"
measured_on = "Apolipoprotein L1 (Homo sapiens)"
experimental_endpoint = "IC50"
obs_value = "250 nM"

[[record]]
molecule = "Cc1cc(F)cc2c(CCC(=O)N[C@@H]3C(=O)NC[C@H]3O)c(-c3ccc(F)cc3)[nH]c12"
measured_on = "Apolipoprotein L1 (Homo sapiens)"
experimental_endpoint = "IC50"
obs_value = "< 250 nM"

[[record]]
molecule = "Cc1cc(F)cc2c(CCC(=O)N[C@H]3CCNC3=O)c(-c3ccc(F)cc3)[nH]c12"
measured_on = "Apolipoprotein L1 (Homo sapiens)"
experimental_endpoint = "IC50"
obs_value = "< 250 nM"

[[record]]
molecule = "O=C(CCc1c(-c2ccc(F)cc2)[nH]c2ccc(F)cc12)NC1CCNC1=O (stereo not drawn)"
measured_on = "Apolipoprotein L1 (Homo sapiens)"
experimental_endpoint = "IC50"
obs_value = "< 250 nM"

[[record]]
molecule = "O=C(N[C@H]1CCNC1=O)[C@H](O)Cc1c(-c2ccccc2)[nH]c2c(F)cc(F)cc12"
measured_on = "Apolipoprotein L1 (Homo sapiens)"
experimental_endpoint = "IC50"
obs_value = "> 1000 nM"


Which IC50 reading was recorded for the molecule O=C(CCc1c(-c2ccc(C(F)(F)F)cc2)[nH]c2ccccc12)N[C@@H]1C(=O)NC[C@H]1O ?
< 250 nM

Which IC50 reading was recorded for the molecule O=C(CCc1c(-c2ccc(F)cc2)[nH]c2ccc(OCc3ccccc3)cc12)N[C@H]1CCNC1=O ?
250 nM

Which IC50 reading was recorded for the molecule N#Cc1cc(F)cc2c(CCC(=O)N[C@@H]3C(=O)NC[C@H]3O)c(-c3ccc(F)cc3)[nH]c12 ?
< 250 nM

Which IC50 reading was recorded for the molecule O=C(CCc1c(-c2ccc(F)cc2)[nH]c2c(F)cc(Cl)cc12)N[C@@H]1CCNC1=O ?
250 nM

Which IC50 reading was recorded for the molecule O=C(CCc1c(-c2ccccc2)[nH]c2c(F)cccc12)N[C@H]1CCNC1=O ?
250 nM

Which IC50 reading was recorded for the molecule Cc1cc(F)c2[nH]c(-c3ccc(F)cc3)c(CCC(=O)N[C@@H]3C(=O)NC[C@H]3O)c2c1 ?
< 250 nM

Which IC50 reading was recorded for the molecule O=C(CCc1c(-c2ccc(F)cc2)[nH]c2c(F)cc(F)cc12)N[C@H]1C[C@@H](CO)NC1=O ?
> 1000 nM

Which IC50 reading was recorded for the molecule O=C(CCc1c(-c2ccc(F)cc2)[nH]c2c(F)c(F)ccc12)N[C@H]1CCNC1=O ?
250 nM

Which IC50 reading was recorded for the molecule O=C(CCc1c(-c2ccc(F)cc2)[nH]c2c(Cl)cccc12)N[C@@H]1C(=O)NC[C@H]1O ?
< 250 nM

Which IC50 reading was recorded for the molecule O=C(CCc1c(-c2cc(F)cc(F)c2)[nH]c2ccccc12)N[C@@H]1C(=O)NC[C@H]1O ?
250 nM

Which IC50 reading was recorded for the molecule C[C@@H](Cc1c(-c2ccc(F)cc2)[nH]c2c(F)cc(F)cc12)C(=O)N[C@H]1CCNC1=O ?
> 1000 nM

Which IC50 reading was recorded for the molecule O=C(CCc1c(-c2ccccc2)[nH]c2ccccc12)N[C@@H]1C(=O)NC[C@H]1O ?
< 250 nM

Which IC50 reading was recorded for the molecule O=C(CCc1c(-c2ccc(F)cc2)[nH]c2ccc(F)cc12)N[C@H]1CCNC1=O ?
< 250 nM

Which IC50 reading was recorded for the molecule O=C(CCc1c(-c2ccccc2)[nH]c2c(C(F)(F)F)cc(F)cc12)N[C@@H]1C(=O)NC[C@H]1O ?
< 250 nM

Which IC50 reading was recorded for the molecule O=C(CCc1c(-c2ccccc2)[nH]c2c(F)cc(F)cc12)N[C@@H]1C(=O)NC[C@H]1O ?
< 250 nM
